tested on: OVCAR-4; test: NCI tumour cell line growth inhibition, 48 h
The source made the active and inactive calls. Cut-off read from the data, not from the text of the source: active = GI50 up to about 1.1 µM and inactive = higher.
Provide the recorded GI50 for the entries that follow.

Batch lookup, GI50 per entry.
1. CC(=O)Oc1ccc2c(C)cc(=O)oc2c1
2. C/C(=N/N)c1ccc2[nH]c3c(C)cc([N+](=O)[O-])c(C)c3c2c1
3. CCc1ccc(CCN2CCCCC2)nc1
4. Cc1nc2ccc(Br)cc2c(=O)n1-c1ccc(N)cc1
5. CC(C(=O)c1ccc(Cl)cc1)C1OC(=O)C(Cl)=C1Cl (stereo not drawn)
6. Cc1c(-c2ccccc2)c(C#N)c2nnn(-c3ccc([N+](=O)[O-])cc3)c(=O)n12

["> 100 µM (inactive)", "14.8 µM (inactive)", "> 100 µM (inactive)", "> 100 µM (inactive)", "25.7 µM (inactive)", "10.4 µM (inactive)"]

Value sought for every listed compound: GI50.
1. O=C(Nc1ccccc1)N1CCNC1=S
2. CCOc1ccc(/N=N/C2C(=O)N(C(=O)CC(=O)Nc3ccccc3OC)N=C2C)cc1 (stereo not drawn)
3. CC(C)NC(=O)OCCN=C1c2ccccc2CCc2ccccc21
4. COc1cc(-c2nc(N)c(C#N)c3c2CCS(=O)(=O)c2ccc(C)cc2-3)cc(OC)c1OC
5. COC(=O)NC1C(C)OC(OC2C/C=C(/C)C3C=CC4C(OC5CC(OC6CC(O)C(OC7CC(O)C(OC)C(C)O7)C(C)O6)C(O)C(C)O5)C(C)CC(C)C4C3(C)C(=O)C3=C(O)C4(CC(C)C(CO)=CC4/C=C\2C)OC3=O)CC1(C)[N+](=O)[O-] (stereo not drawn)
6. O=C/C(=C(/Br)I)c1ccccc1

71.6 µM (inactive)
> 19.7 µM (inactive)
12.2 µM (inactive)
> 100 µM (inactive)
3.48 µM (inactive)
3.86 µM (inactive)

###

For each record, write down the corresponding GI50.
tested on: SK-MEL-2; assay: NCI tumour cell line growth inhibition, 48 h
The source made the active and inactive calls. Cut-off read from the data, not from the text of the source: active = GI50 up to about 1.1 µM and inactive = higher.

For orientation, consider the following solved cases.
{"COMPOUND": "COc1ccc(Nc2n[nH]c(NS(=O)(=O)c3cc(C)c(Cl)cc3S)n2)cc1", "GI50": "> 100 µM (inactive)"}
{"COMPOUND": "COC(=O)C1=C2Nc3ccccc3C23CCN2C(O)C4(CC5CC67CCOC6CCN6CCC8(c9cccc(OC)c9N(C4)C58O)C67)C4OCCC4(C1)C23 (stereo not given)", "GI50": "84.1 µM (inactive)"}
{"COMPOUND": "CC(C)(C)OC(=O)[C@@H]1CCC(=O)N1C1(c2ccccc2)c2ccccc2-c2ccccc21", "GI50": "26.2 µM (inactive)"}
{"COMPOUND": "CC(Nc1ccc(S(=O)(=O)NC(=N)N)cc1)c1c2ccccc2nc2ccccc12 (stereo not given)", "GI50": "22.5 µM (inactive)"}

Below: the item to evaluate.
// fetch GI50 given entry `COc1cc(OC)c(C2(c3c(OC(C)C)c(=O)c3=O)SCCCS2)cc1OC`
> 100 µM (inactive)

###

Provide the recorded GI50 for the entries that follow.
test system: UACC-257; assay: NCI tumour cell line growth inhibition, 48 h
Activity calls are given as the source filed them. Rule as the data show it: active = GI50 up to about 1.1 µM and inactive = higher.

{"COMPOUND": "CC(C)=CCNc1ncnc2[nH]cnc12", "GI50": "37.1 µM (inactive)"}
{"COMPOUND": "O=C(/C=C/c1ccc(-c2ccccc2[N+](=O)[O-])o1)NCc1ccc(C(=O)NCCc2ccccc2)cc1", "GI50": "46.7 µM (inactive)"}
{"COMPOUND": "O=C(C1OC1c1ccc(Cl)cc1)C12CC3CC(CC(C3)C1)C2 (stereo not given)", "GI50": "21.6 µM (inactive)"}
{"COMPOUND": "CC1(O)C2(c3ccccc3)CCC[N+]1(C)CC2 (stereo not given)", "GI50": "> 100 µM (inactive)"}
{"COMPOUND": "O=C(c1ccc(Cl)c(Cl)c1)N(C(=S)OC12CC3CC(CC(C3)C1)C2)c1ccccc1", "GI50": "41.2 µM (inactive)"}

Please state, for each entry, its recorded GI50.
1. CC1(C)[C@H]2Cc3cc4nc5ccccn5c4cc3[C@@H]1C2
2. SC1=NC2=C(CSC/C2=C\c2ccc(Cl)cc2)C(c2ccc(Cl)cc2)N1 (stereo not given)
3. Cc1c(-c2ccccc2)c(C#N)c2nnn(-c3ccc([N+](=O)[O-])cc3)c(=O)n12

17.6 µM (inactive)
32 µM (inactive)
> 100 µM (inactive)

Provide the reported GI50 of each entry below, same order.
1. CC(=O)Nc1ccc(-c2nc3cc(Cl)ccc3o2)cc1
2. O=P(NC12CC3CC(CC(C3)C1)C2)(N1CC1)N1CC1

1: > 50 µM (inactive); 2: > 100 µM (inactive)

###

test system: COLO 205; test: NCI tumour cell line growth inhibition, 48 h
Calls of active or inactive are those of the source. Cut-off read from the data, not from the text of the source: active = GI50 up to about 1.1 µM and inactive = higher.
EXPERIMENTAL_ENDPOINT: GI50

{"COMPOUND": "O=C/C(=C(/Br)I)c1ccccc1", "ASSAY_RESULT": "3.91 µM (inactive)"}

I have 3 compounds here; please give me GI50 for each one.
1. NC(=O)C(=CNC(=S)c1ccncc1)C(N)=O
2. CC1=C(/C=C/C(=O)O)C(C)(C)CCC1
3. C=C(Br)CNC(=O)CCC(=O)NCC(=C)Br

1. > 100 µM (inactive)
2. > 100 µM (inactive)
3. > 100 µM (inactive)

Can you give me GI50 for all of these, one by one?
1. O=C1OC(=O)C([Se]c2ccccc2)=C1[Se]c1ccccc1
2. CC(C)NC(=O)OCCN=C1c2ccccc2CCc2ccccc21
3. CCN(CC)CCNC(=O)c1ccc(I)cc1
4. CC(Nc1cc(Cl)cc(Cl)c1)c1ccncc1 (configuration not stated)

1: > 100 µM (inactive); 2: 19.1 µM (inactive); 3: > 100 µM (inactive); 4: 15.6 µM (inactive)

Required: GI50, one value per compound below.
1. O/N=C1\CC2(N3CCOCC3)CCC1(Cc1ccccc1)CC2
2. O=C(NC(=S)Nc1ccc(Br)cc1)c1ccc2c(c1)Sc1ccccc1S2

["> 100 µM (inactive)", "41.8 µM (inactive)"]

# return GI50 for each item in the list
1. COC(=O)c1cc2c3c(c1)Oc1cc(C(=O)OC)cc4c1C3c1c(cc(C(=O)OC)cc1O4)O2
2. COC(=O)CC(NC(=O)OCc1ccccc1)C(C(=O)OCc1ccccc1)C1(C)OCCO1 (configuration not stated)
3. Cc1c(C(=O)CC(=O)C(=O)Nc2ccc(Cl)c(Cl)c2)[n+]([O-])c2ccccc2[n+]1[O-]
4. C=C(C)C1Cc2c(cc(O)c3c(=O)c4c(oc23)C(O)Oc2cc(OC)c(OC)cc2-4)O1 (configuration not stated)

1: 23.7 µM (inactive); 2: 18.6 µM (inactive); 3: 19.4 µM (inactive); 4: > 10 µM (inactive)

###

tested on: ACHN; test: NCI tumour cell line growth inhibition, 48 h
The source made the active and inactive calls. Rule as the data show it: active = GI50 up to about 1.1 µM and inactive = higher.
Task for the reader: assign each of the following compounds its reported GI50.

Sample answers from the record:
{"COMPOUND": "CC(=O)OCCCCN1C(=O)CSc2ccccc21", "GI50": "> 100 µM (inactive)"}
{"COMPOUND": "O=C1c2cc3c(cc2NC(c2ccccc2F)C1O)OCO3 (stereo unspecified)", "GI50": "31.9 µM (inactive)"}
{"COMPOUND": "N#C/C(=C\\c1c(O)cc(O)cc1O)C(N)=O", "GI50": "> 100 µM (inactive)"}

Hey, can you go through the list below and give me GI50 for every item?
1. CC1=C(C)C(=O)C(C2=CC(=O)C=CC2=O)=C(C2=CC(=O)C=CC2=O)C1=O
2. CCOC(=O)c1c(N)n(-c2ccccc2)c(=O)n(-c2ccccc2)c1=O
3. CC(SC(=S)N(C)C)C(=O)Nc1nnc(-c2ccc(Cl)cc2)o1 (stereo unspecified)
4. Cn1c(-c2ccccc2)c2cc3nc4ccccc4nc3cc2c1-c1ccccc1
5. CN1c2ccccc2C(=O)NC12CCNCC2

1: 59.4 µM (inactive); 2: > 100 µM (inactive); 3: 36 µM (inactive); 4: 17.7 µM (inactive); 5: > 100 µM (inactive)

Please go through the list and note GI50 for each compound.
1. O=C1Nc2ccccc2/C1=N/N=C1NCCCCN1
2. O=C1/C(=C\c2c(-c3ccccc3)[nH]n(-c3ccccc3)c2=O)C(c2ccccc2)=NN1c1ccccc1

1. > 100 µM (inactive)
2. > 100 µM (inactive)

Consider the compound `Cc1nc(-n2nc(-c3ccccc3)cc2-c2ccccc2)sc1C(=O)/C=C/c1ccc([N+](=O)[O-])cc1` and give its recorded GI50.
26.5 µM (inactive)

###

test system: LOX IMVI; experiment: NCI tumour cell line growth inhibition, 48 h
Calls of active or inactive are those of the source. No stated cut-off is given here; in the data, active = GI50 up to about 1.1 µM and inactive = higher.
EXPERIMENTAL_ENDPOINT: GI50

Here is how some compounds turned out for GI50.
{"COMPOUND": "CCc1ccc(CCN2CCCCC2)nc1", "GI50": "> 100 µM (inactive)"}
{"COMPOUND": "O=c1c(-c2cccc3ccccc23)c(-c2cccc3ccccc23)c1=O", "GI50": "1.77 µM (inactive)"}
{"COMPOUND": "COC(=O)NC1C(C)OC(OC2C/C=C(/C)C3C=CC4C(OC5CC(OC6CC(O)C(OC7CC(O)C(OC)C(C)O7)C(C)O6)C(O)C(C)O5)C(C)CC(C)C4C3(C)C(=O)C3=C(O)C4(CC(C)C(CO)=CC4/C=C\\2C)OC3=O)CC1(C)[N+](=O)[O-] (centres undefined)", "GI50": "11.5 µM (inactive)"}
{"COMPOUND": "Cc1ccc(NC(=O)C(=O)CC(=O)C2CCOC2=O)c(C)c1 (centres undefined)", "GI50": "> 100 µM (inactive)"}
{"COMPOUND": "CCCCCCc1ccc(CCCCCCCC(=O)O)o1", "GI50": "> 100 µM (inactive)"}
{"COMPOUND": "O=C(CC1(O)C(=O)Nc2c(Cl)cc(Cl)cc21)c1cccc([N+](=O)[O-])c1 (centres undefined)", "GI50": "17 µM (inactive)"}

Please report GI50 for every entry that follows.
1. NC(Cc1ccccc1)c1nn[nH]n1 (centres undefined)
2. CCOC(=O)CSc1nnc(CSc2nc(-c3ccccc3)c(-c3ccccc3)[nH]2)n1-c1ccccc1
3. CCN(CC)C(=S)SS(=O)(=O)c1ccccc1[N+](=O)[O-]

1. > 100 µM (inactive)
2. > 61.5 µM (inactive)
3. 17.3 µM (inactive)
